# SYSTEM_UNDER_TEST: human GABAA α5β2γ1 receptor (Homo sapiens (Human), UniProt P31644+Q8N1C3)
# PROTOCOL_DETAILS: Radioligand binding assay, competition for [3H]RO7239181, membranes from HEK293F cells
pKi: −log10 of the molar value.
Tag: true if measured pKi is not below 9, false if it is.

| SMILES_ENTRY | GROUP_LABEL |
| --- | --- |
| CN1C(=O)CN=C(c2c(F)ccc(O)c2F)c2c1ccc(Cl)c2Cl | true |
| Cc1cnc2n1-c1ccc(C(F)(F)F)c(Cl)c1C(c1nc(O)ccc1F)=N[C@H]2C | false |
| C[C@@H]1N=C(c2nc(O)ccc2F)c2c(ccc(C(F)(F)F)c2Cl)-n2cc(C(=O)NC3CC3)nc21 | false |
| Cc1ccc2c(c1Cl)C(c1cc(O)ccc1F)=NCC(=O)N2C | true |
| Cc1nnc2n1-c1ccc(Cl)c(Cl)c1C(c1cc(O)ccc1F)=NC2 | true |
| Cc1nnc2n1-c1ccc(Cl)c(Cl)c1C(c1c(F)ccc(O)c1F)=N[C@H]2C | false |
| Cc1nnc2n1-c1ccc(C(F)(F)F)c(Cl)c1C(c1nc(O)ccc1Cl)=N[C@H]2C | false |
| CN1C(=O)CN=C(c2cc(O)ccc2F)c2c1ccc(C(F)(F)F)c2Cl | true |
| C[C@@H]1N=C(c2nc(O)ccc2F)c2c(ccc(C(F)(F)F)c2Cl)-n2c1nc1c2CCC1 | false |
| C[C@@H]1N=C(c2nc(O)ccc2F)c2c(ccc(C(F)(F)F)c2Cl)-n2cc(C(=O)N3CCC3)nc21 | false |
| Cc1nc2n(n1)-c1ccc(C(F)(F)F)c(Cl)c1C(c1nc(O)ccc1Cl)=N[C@H]2C | false |
| Cc1nnc2n1-c1ccc(Cl)c(Cl)c1C(c1c(F)ccc(O)c1F)=NC2 | true |
| Cc1cn2c(n1)[C@H](C)N=C(c1nc(O)ccc1Cl)c1c-2ccc(C(F)(F)F)c1Cl | false |
| Cc1nnc2n1-c1ccc(C(F)(F)F)c(Cl)c1C(c1nc(O)ccc1F)=N[C@H]2C | false |
| C[C@@H]1N=C(c2cc(O)ccc2F)c2c(ccc(Cl)c2Cl)-n2ccc(=O)nc21 | true |

Provenance of the data: patent US12344614B2
